experiment: Cytotoxicity against African green monkey Vero cells after 4 days by neural red dye-based assay; assay type: cell-based; conditions: chlorocebus sabaeus, read-out: TC50
Threshold 80 µM. CC50 at 96 h below it: label 1. CC50 at 96 h at it or above: label 0.

Before answering, review these 3 worked examples.
>>> class_name("CC1(C)[C@@H]2CC[C@@]1(C)/C(=N/NC(N)=S)C2")
"label 0"
>>> class_name("CC1(C)[C@@H]2CC[C@@]1(C)/C(=N/Nc1nc(-c3ccc([N+](=O)[O-])cc3)cs1)C2")
"label 0"
>>> class_name("CC1(C)[C@@H]2CC[C@@]1(C)/C(=N/Nc1nc(-c3ccc(F)cc3)cs1)C2")
"label 0"

CC50 at 96 h strictly < 80 µM for this compound? "Nc1ccn(C[C@@H](CO)OCP(=O)(O)O)c(=O)n1"
label 0

In the record for "Cc1ccc(-c2csc(N/N=C3\C[C@H]4CC[C@]3(C)C4(C)C)n2)cc1" , is CC50 at 96 h less than 80 µM?
label 1

Answer whether the compound "CC1(C)[C@@H]2CC[C@@]1(C)/C(=N/Nc1nc(-c3ccccc3)cs1)C2" has CC50 at 96 h strictly less than 80 µM
label 1
